Numbers sourced from the NIST ThermoML archive (doi:10.1016/j.jct.2018.02.022).

Settings: 303.15 K; 92.3 kPa; Liquid; Vibrating tube method
attributeMeasured: mass density (kg/m3)
# output: bare number, implied unit kg/m3

Worked cases, answers included:
O [water]    995.867
OCCOCCO [diethylene glycol]    1109.6
OCCOCCOCCO [triethylene glycol]    1115.7
OCC(O)CO [glycerol]    1254.48
OCCO [1,2-ethanediol]    1106.71

Now examine the next entry.
stdin: Entry under review: CCO [ethanol] . Reported mass density?
stdout: 780.941

----------
Conditions: 298.15 K; 92.3 kPa; Liquid; Concentric cylinders viscometry
Hi, to clarify the labels: TRUE covers viscosity from 20 mPa·s upward, FALSE covers anything below 20 mPa·s.

CCO    FALSE
OCCOCCO    TRUE
OCCOCCOCCO    TRUE
OCCO    FALSE

stdin: Dear colleague, could you confirm whether OCC(O)CO has viscosity at or above 20 mPa·s?
stdout: TRUE

stdin: Please tell me: is the compound O at or over 20 mPa·s in terms of viscosity?
stdout: FALSE

----------
Each entry below carries its recorded speed of sound.
Conditions: 308.15 K; 92.3 kPa; Liquid; Frequency=3 MHz; Single path-length method
Give the value, in units of m/s, as a plain number.

Examples with answers:
OCCO [1,2-ethanediol]    1631.2
CCO [ethanol]    1109.6
OCCOCCO [diethylene glycol]    1555.3

stdin: Given the compound OCC(O)CO [glycerol] , what is its reported speed of sound?
stdout: 1888.1

stdin: Need speed of sound, item OCCOCCOCCO [triethylene glycol]
stdout: 1581.7

----------
Settings: 293.15 K; 92.3 kPa; Liquid; Frequency=3 MHz; Single path-length method
attributeMeasured: speed of sound (m/s)
Numbers only; they are read as m/s.

Solved entries (count: 4):
OCCOCCO    1591
OCCOCCOCCO    1626.8
CCO    1160.7
OCC(O)CO    1925.5

Now look at this one.
stdin: Value lookup for speed of sound; key = OCCO
stdout: 1666.5

----------
# mass density annotations
Settings: 298.15 K; 92.3 kPa; Liquid; Vibrating tube method
Write the answer as a number in kg/m3, unit excluded.

Here are 4 compounds together with their reported answers.
OCCOCCO    1113.17
OCC(O)CO    1257.65
OCCOCCOCCO    1119.59
CCO    785.26

Okay, next one:
stdin: Fill in: mass density of O is ___
stdout: 997.267

----------
Conditions: 308.15 K; 92.3 kPa; Liquid; Concentric cylinders viscometry
attributeMeasured: viscosity (mPa·s)
Field: numeric (mPa·s). Do not append units.

Check out these entries, answers already filled in.
CCO [ethanol]    0.9039
OCCOCCOCCO [triethylene glycol]    23.72
OCC(O)CO [glycerol]    401.76
OCCO [1,2-ethanediol]    11.48
O [water]    0.7589

Now for the molecule whose viscosity we want.
stdin: Entry OCCOCCO [diethylene glycol] : reported viscosity = ?
stdout: 18.27

----------
Settings: 308.15 K; 92.3 kPa; Liquid; Vibrating tube method
attributeMeasured: mass density (kg/m3)
Provide the reading as a plain figure in kg/m3.

stdin: Return reported mass density; argument: CCO [ethanol]
stdout: 776.592

stdin: Reported mass density, molecule OCCOCCO [diethylene glycol] : ____
stdout: 1106.01

stdin: Suppose we examine the molecule OCCOCCOCCO [triethylene glycol] ; what mass density value has been reported?
stdout: 1111.81

stdin: Any idea what its mass density is? The molecule is O [water]
stdout: 994.252

stdin: Fill blank: measured mass density of the molecule OCC(O)CO [glycerol] is ____.
stdout: 1251.38
